Assayed Target: T1, human IL-1RAcP on 293T/17-FR cells (human, UniProt Q9NPH3 21-570)
T1 sequence (looked up): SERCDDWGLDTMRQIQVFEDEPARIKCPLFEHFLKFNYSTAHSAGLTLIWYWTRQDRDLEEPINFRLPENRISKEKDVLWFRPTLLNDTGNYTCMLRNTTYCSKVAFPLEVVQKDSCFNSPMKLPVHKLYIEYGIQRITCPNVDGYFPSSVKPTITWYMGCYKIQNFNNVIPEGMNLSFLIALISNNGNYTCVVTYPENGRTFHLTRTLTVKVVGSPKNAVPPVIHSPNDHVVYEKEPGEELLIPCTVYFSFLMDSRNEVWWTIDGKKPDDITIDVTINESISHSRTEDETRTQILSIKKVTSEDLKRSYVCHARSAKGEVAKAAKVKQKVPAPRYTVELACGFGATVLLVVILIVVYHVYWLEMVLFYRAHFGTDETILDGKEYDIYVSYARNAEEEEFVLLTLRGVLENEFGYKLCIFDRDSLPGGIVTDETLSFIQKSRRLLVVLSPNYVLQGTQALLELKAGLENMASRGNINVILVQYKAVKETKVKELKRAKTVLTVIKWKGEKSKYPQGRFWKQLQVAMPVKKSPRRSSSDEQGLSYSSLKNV
Protocol Summary: cell-based or functional assay
Binary call on primary supernatant functional assay (% inh.), NF-kB luciferase reporter: yes (1) from 80% upward, no (0) beneath that.

INSERT INTO measurements (binder, category) VALUES
  ('P013.S.01.B.A02 (antibody, V domains shown, rabbit monoclonal antibody; also called P013.A.00003.H11) VH: QSVEESGGRLVTPGTPLTLTCTVSGIDLSSYAMGWVRQAPGKGLEYIGVITSSATTYYASWAKGRFTISKTSSTTVDLRVTSLTTEDTATYFCARGGPGYSTNTHYAFDPWGPGTLVTVSS VL: AFEMTQTPSSVSEPVGGTVTIKCQASQSIYIYLSWYQQKPGQRPKLLIYDASKLASGVPSRFSGSGSGTEFTLTISGVQSDDAATYYCQQGATTYNVDNVFGGGTEVVVK', 'yes (1)'),
  ('P013.S.01.B.A06 (antibody, V domains shown, rabbit monoclonal antibody; also called P013.A.00133.B12) VH: QSLEESGGRLVTPGTPLTLSCKVSGFSLSSYDMSWVRQTPGKGLEWIGTIYIGGTTAYASWPKGRFTISKTSTTVDLKITSPTKEDTATYFCARLQGANYYNSLALWGQGTLVTVSS VL: DVVMTQTPASVSEPVGGTVTIKCQASQSIYSFLSWYQQKPGQPPKLLIYAASDLESGVPSRFSGSGYGTEFTLTISDLESADAATYYCQCNYIIDYGAFGGGTEVVVK', 'yes (1)'),
  ('P013.S.01.B.E03 (antibody, V domains shown, rabbit monoclonal antibody; also called P013.A.00015.E03) VH: QSLEESGGRLVTPGTPLTLTCTASGFSITNYHISWVRQAPGKGLEWIGYIYAGRDFTYYANWAEGRFTISKTSTTVDLQVTVPTTEDTATYFCARDGGSPNWTLDLWGQGTLVTVSS VL: DVVMTQTPASVSEPVGGTVTINCQASESISDYLSWYQQKPGQPPKLLIYRASTLESGVSSRFKGSGSGTQFTLTISDLESADAATYYCQSNYYDSRGNAFGGGTEVVVK', 'no (0)'),
  ('P013.S.02.B.B03 (antibody, V domains shown, rabbit monoclonal antibody; also called P013.A.00045.F11) VH: QEQLEESGGDLVKPEGSLTLTCTASGFSFSSNYWICWVRQAPGKGLELIACIYTSTGNTWYASWAKGRFTISKTSSTTVTLQMTSLTVADTATYFCARDLLVVTSFNLWGQGTLVTVSS VL: ALVMTQTPSPVSAAVGGTVTINCQASEDIYSNLAWFQQKPGQPPKLLIYGASTLASGVPSRFSGSGSGTEFTLTISGVQSDDAATYYCLGVCTDISTDDLYNAFGGGTELVVK', 'yes (1)'),
  ('P013.S.02.B.G03 (antibody, V domains shown, rabbit monoclonal antibody; also called P013.A.00014.D07) VH: QSVEESGGRLVTPGTPLTLTCTVSGFSLSSYGMIWVRQAPGEGLEWIGFIGRGGATWYASWVKGRFTISKTSTTVDLKITSPTASDTATYFCARDGDSSDYYAFNLWGQGTLVTVSS VL: DVVMTQTPASVSEPVGGTVTIKCQASQNIGSNLAWYQQRSGQPPKLLIYGASTLASGVPSRFSGSGSGTEFTLTISGVQSADAATYFCQCSGYDITGVFPFGGGSEVVVK', 'no (0)'),
  ('P013.S.01.B.C05 (antibody, V domains shown, rabbit monoclonal antibody; also called P013.A.00045.E06) VH: QSVEESGGRLVTPGTPLTLTCTVSGFSLSNYAMSWVRQAPGKGLEYIGIIDSGGSAYYATWARGRFTISRTSTTVDLKMTSPTTEDTATYFCARGGPAYSTNTHYTLDLWGPGTLVTVSS VL: AFEMTQTPSSVSEPVGGTVTIKCQASQSIYNYLSWYQQKPGQPPKLLIYDASELASGVPSRFKGSGSGTEFTLTISGVQSDDAATYYCQQGATTYNIENVFGGGTEVVVK', 'no (0)'),
  ('P013.S.01.B.H03 (antibody, V domains shown, rabbit monoclonal antibody; also called P013.A.00045.A02) VH: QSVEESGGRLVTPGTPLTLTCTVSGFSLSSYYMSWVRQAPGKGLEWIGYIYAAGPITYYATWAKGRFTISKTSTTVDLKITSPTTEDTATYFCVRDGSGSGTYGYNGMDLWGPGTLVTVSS VL: AYDMTQTPASVEAAVGGTVNIKCQASQSISNWLAWYQQKPGQPPKLLIYRASTLASGVSSRFKGSGSGTQFTLTISGVESADAATYYCQQGASTTDVDNVFGGGTEVVVK', 'no (0)'),
  ('P013.S.02.B.E03 (antibody, V domains shown, rabbit monoclonal antibody; also called P013.A.00091.A10) VH: QSVEESGGRLVTPGTPLTLTCTVSGFSLSDYYMGWVRQAPGKGLEWIGTIDGGGSTYYASWAKGRFTVSKTSTTVDLTITSPTTEDTAIYFCARNYYAGLSDVFFGWWGQGTLVTVSS VL: DVVMTQTPASVEAAVGGTVTIMCQASETIYSGLAWYQQKPGQPPKLLIYYTSSLASGVPSRFKGSGSGTEFTLTISDLESADAATYYCQTYYDSEGRSYGYNSFGGGTEVVVK', 'no (0)'),
  ('P013.S.02.B.H02 (antibody, V domains shown, rabbit monoclonal antibody; also called P013.A.00015.B10) VH: QSLEESGGRLVTPGTPLTLTCTVSGFSLSSCAMIWVRQAPGKGLEWIGFIGRGGSTWYASWVNGRFTISKTSTTVDLKITSPTTEDTATYFCARDGDFSDYYTFNLWGQGTLVTVSS VL: DVVMTQTPASVSEPVGGTVTIKCQASQNIGSNLAWYQQKPGQPPKLLIYGASTLASGVPSRFSGSGSGTEFTLTISGVQSADATTYYCQCSGYDTTGVFPFGGGSEVVVR', 'no (0)');
